- studyTarget: Avi-KRAS G12D (1-169) GppNHp/RAF1 RBD-3xFLAG (52-151) (Homo sapiens, UniProt P01116, G12D)
- Construct: Avi-KRAS G12D (1-169)
- Sequence (P01116 1-169 isoform P01116-2 G12D): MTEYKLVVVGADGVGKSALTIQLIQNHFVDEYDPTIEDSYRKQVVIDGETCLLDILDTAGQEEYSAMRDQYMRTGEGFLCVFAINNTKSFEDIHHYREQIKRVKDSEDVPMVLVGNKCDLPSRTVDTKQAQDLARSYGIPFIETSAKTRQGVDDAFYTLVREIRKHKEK
- measurementNotes: Raf1-KRAS G12D-GppNHP disruption HTRF assay (Biological Example 1)
- Format: binding
- particulars: KRAS G12D, GppNHp-loaded; Table 11
For each of the molecules below, state its IC50.

Report measured IC50; entry is `Nc1nc2c(-c3c(C(F)(F)F)cc4c(N5CCC(O)CC5)nc(OCC56CCCN5CCC6)nc4c3F)ccc(F)c2s1`
1000 to 10000 nM

Look up and state reported IC50 for `CN(c1nc(OC[C@@]23CCCN2C[C@H](F)C3)nc2c(F)c(-c3ccc(F)c4sc(N)c(C#N)c34)ccc12)[C@H]1C[C@@H](O)C1`
100 to 1000 nM

Give IC50 for `N#Cc1c(N)sc2c(F)ccc(-c3c(C(F)(F)F)cc4c(N(CCO)C5CC5)nc(OC[C@@]56CCCN5C[C@H](F)C6)nc4c3F)c12`
100 to 1000 nM

Let me know recorded IC50 for N#Cc1c(N)sc2c(F)ccc(-c3c(C(F)(F)F)cc4c(N5CC6CC5CO6)nc(OC[C@@]56CCCN5C[C@H](F)C6)nc4c3F)c12 (stereo partly drawn) , thanks.
100 to 1000 nM

Look up and state reported IC50 for CC(=O)N1CC[C@H](N(C)c2nc(OC[C@@]34CCCN3C[C@H](F)C4)nc3c(F)c(-c4ccc(F)c5sc(N)c(C#N)c45)c(C(F)(F)F)cc23)[C@@H]1C (single isomer, unassigned) [Compound 195]
1000 to 10000 nM

Report IC50, nothing else, for this molecule: `N#Cc1c(N)sc2c(F)ccc(-c3c(C(F)(F)F)cc4c(N5CCS(=O)(=O)CC5)nc(OC[C@@]56CCCN5C[C@H](F)C6)nc4c3F)c12`
100 to 1000 nM

Give IC50 for the following molecule: `C[C@H]1[C@@H](N(C)c2nc(OC[C@@]34CCCN3C[C@H](F)C4)nc3c(F)c(-c4ccc(F)c5sc(N)c(C#N)c45)c(C(F)(F)F)cc23)CCN1C(=O)CC#N`
1000 to 10000 nM

Provide measured IC50 value, entry: `N#Cc1c(N)sc2c(F)ccc(-c3c(C(F)(F)F)cc4c(N5C[C@H](F)[C@@H](F)C5)nc(OC[C@@]56CCCN5C[C@H](F)C6)nc4c3F)c12`
100 to 1000 nM

Recall and state the measured IC50 for CO[C@H]1CN2CCC[C@]2(COc2nc(N(C)[C@H]3C[C@@H](O)C3)c3cc(C(F)(F)F)c(-c4ccc(F)c5sc(N)nc45)c(F)c3n2)C1 (atropisomer, axis not shown) .
1000 to 10000 nM

Indicate the recorded IC50 value for this molecule: CN(c1nc(OCC23CCCN2CCC3)nc2c(F)c(-c3ccc(F)c4sc(N)nc34)c(C(F)(F)F)cc12)[C@H]1C[C@@H](O)C1 (atropisomer, axis not shown)
100 to 1000 nM

Using the record for N#Cc1c(N)sc2c(F)ccc(-c3c(C(F)(F)F)cc4c(N5CC6CCC(C5)C6O)nc(OC[C@@]56CCCN5C[C@H](F)C6)nc4c3F)c12 (stereo partly drawn) , state its measured IC50.
100 to 1000 nM

Return reported IC50. Input molecule: CN(c1nc(OC[C@@]23CCCN2C[C@H](F)C3)nc2c(F)c(-c3ccc(F)c4sc(N)c(C#N)c34)c(C(F)(F)F)cc12)C1CCC(O)CC1 (stereo partly drawn) [Compound 65]
100 to 1000 nM

Give the reported IC50 for this molecule. CC(=O)N1CCC(N(C)c2nc(OCC34CCCN3CC(F)C4)nc3c(F)c(-c4ccc(F)c5scc(C#N)c45)c(C(F)(F)F)cc23)C1 (stereo not drawn)
> 10000 nM

Please report IC50 for the following molecule: `CC(=O)N1C[C@@H](F)[C@H](N(C)c2nc(OC[C@@]34CCCN3C[C@H](F)C4)nc3c(F)c(-c4ccc(F)c5sc(N)c(C#N)c45)c(C(F)(F)F)cc23)C1`
100 to 1000 nM

Please supply the value of reported IC50 for the item `C[C@@H]1CN(c2nc(OC[C@@]34CCCN3C[C@H](F)C4)nc3c(F)c(-c4ccc(F)c5sc(N)c(C#N)c45)c(C(F)(F)F)cc23)[C@@H](C)CO1`
100 to 1000 nM

Note IC50 for the molecule shown: `N#Cc1c(N)sc2c(F)ccc(-c3c(C(F)(F)F)cc4c(N5CCC(F)CC5)nc(OC[C@@]56CCCN5C[C@H](F)C6)nc4c3F)c12`
100 to 1000 nM

Give the value of IC50 reported for the following: `C[C@H]1[C@@H](N(C)c2nc(OC[C@@]34CCCN3C[C@H](F)C4)nc3c(F)c(-c4ccc(F)c5sc(N)c(C#N)c45)c(C(F)(F)F)cc23)CCN1C(=O)CO`
1000 to 10000 nM

Item CN(c1nc(OC[C@@]23CCCN2C[C@H](F)C3)nc2c(F)c(-c3ccc(F)c4sc(N)c(C#N)c34)c(C(F)(F)F)cc12)[C@]1(CC#N)C[C@H](O)C1 (atropisomer, axis not shown) : provide IC50
100 to 1000 nM

Specify reported IC50 for the molecule shown: `N#Cc1c(N)sc2c(F)ccc(-c3c(C(F)(F)F)cc4c(N5C[C@H]6C[C@@H]5CO6)nc(OC[C@@]56CCCN5C[C@H](F)C6)nc4c3F)c12`
100 to 1000 nM

Return IC50 for the following molecule: N#Cc1c(N)sc2c(F)ccc(-c3c(C(F)(F)F)cc4c(N5CCOCC5)nc(OC[C@@]56CCCN5C[C@H](F)C6)nc4c3F)c12 (single isomer, unassigned) [Compound 198]
100 to 1000 nM

Please report IC50 for the following molecule: CCN(C)c1nc(OC[C@@]23CCCN2C[C@H](F)C3)nc2c(F)c(-c3ccc(F)c4sc(N)c(C#N)c34)c(C(F)(F)F)cc12 (single isomer, unassigned) [Compound 197]
> 10000 nM
